tested on: KM-20L2; assay: NCI tumour cell line growth inhibition, 48 h
Calls of active or inactive are those of the source. Rule as the data show it: active = GI50 up to about 1.1 µM and inactive = higher.
property.name: GI50

Below are 4 molecules. Give each one its GI50.
1. O=S(=O)(O)c1cc(O)c2c(O)c(/N=N/c3ccc(/C=C/c4ccc(/N=N/c5c(S(=O)(=O)O)cc6cc(S(=O)(=O)O)cc(O)c6c5O)cc4S(=O)(=O)O)c(S(=O)(=O)O)c3)c(S(=O)(=O)O)cc2c1
2. Cc1cc(C)nc(NS(=O)(=O)c2ccc(Nc3c4ccc(Cl)cc4nc4c(C(=O)Nc5ccc(S(=O)(=O)N=C(N)N)cc5)cccc34)cc2)n1
3. COC(=O)C(C/C=C(\C)c1ccccc1)C(C)=O (stereo not drawn)
4. CCOC(=O)[N-]c1ccc(S(=O)(=O)[O+](C)CCl)cc1.CCOC(=O)[N-]c1ccc(S(=O)(=O)[O+](C)CCl)cc1.NC(=O)N=O.NC(=O)OCCCl

["> 100 µM (inactive)", "> 100 µM (inactive)", "> 100 µM (inactive)", "> 100 µM (inactive)"]

Below are 4 molecules. Give each one its GI50.
1. CCOC(=O)NC(=O)c1cn(CCN2CCN(c3ncnc4[nH]cnc34)CC2)c(=O)[nH]c1=O
2. O=C(Cc1nc2ccccc2c(=O)n1-c1c(Cl)cccc1Cl)c1ccncc1
3. O=C(Cn1ccnc1[N+](=O)[O-])N(CCO)CCO
4. O=c1c2cc([N+](=O)[O-])ccc2sc2ccsc12

> 100 µM (inactive)
27.5 µM (inactive)
> 1250 µM (inactive)
> 100 µM (inactive)
